Value source: patent US4477443A

Entries and their measured MIC follow.
System: Staph. aureus MS 9861
ASSAY_PROTOCOL: antimicrobial activity (MIC), Table I
Assay type: cell-based
MEASUREMENT_SETUP: Staphylococcus aureus, MS9861; Staph. aureus MS 9861; read-out: MIC
Give the value in µg/mL but do not write µg/mL after it.

Here is how some compounds turned out for MIC.
CCC1OC(=O)CC(O)C(C)C(OC2OC(C)CC(N(C)C)C2O)C(CC=O)CC(C)C(=O)C=CC(C)=CC1CN(CC)CC (stereo not drawn)    0.78
CCC1OC(=O)CC(O)C(C)C(OC2OC(C)CC(N(C)C)C2O)C(CC=O)CC(C)C(=O)C=CC(C)=CC1CN1CCCCC1 (stereo not drawn)    1.56
CCC1OC(=O)CC(O)C(C)C(OC2OC(C)CC(N(C)C)C2O)C(CC=O)CC(C)C(=O)C=CC(C)=CC1CNC(=O)c1ccccc1 (stereo not drawn)    0.78

*Q* For the compound CCC1OC(=O)CC(O)C(C)C(OC2OC(C)C(O)C(N(C)C)C2O)C(CC=O)CC(C)C(=O)C=CC(C)=CC1CN1CCCCC1 (stereo not drawn) , report MIC.
*A* 0.78

*Q* For the compound CCC1OC(=O)CC(O)C(C)C(OC2OC(C)CC(N(C)C)C2O)C(CC=O)CC(C)C(=O)C=CC(C)=CC1CN1CCCCC1CO (stereo not drawn) , report MIC.
*A* 0.39

*Q* For the compound CCC1OC(=O)CC(O)C(C)C(OC2OC(C)CC(N(C)C)C2O)C(CC=O)CC(C)C(=O)C=CC(C)=CC1CN1CCCCCCC1 (stereo not drawn) , report MIC.
*A* 0.78

---

System: Sal. enteritidis 1891
ASSAY_PROTOCOL: antimicrobial activity (MIC), Table I
Format: cell-based
MEASUREMENT_SETUP: Salmonella enterica; Sal. enteritidis 1891; read-out: MIC
RECORDED_METRIC: MIC (µg/mL)
Give the value in µg/mL but do not write µg/mL after it.

Here is how some compounds turned out for MIC.
CCC1OC(=O)CC(O)C(C)C(OC2OC(C)C(O)C(N(C)C)C2O)C(CC=O)CC(C)C(=O)C=CC(C)=CC1CN(C)C (stereo not shown)    1.56
CCOC(=O)NCC1C=C(C)C=CC(=O)C(C)CC(CC=O)C(OC2OC(C)CC(N(C)C)C2O)C(C)C(O)CC(=O)OC1CC (stereo not shown)    3.12
CCC1OC(=O)CC(O)C(C)C(OC2OC(C)C(O)C(N(C)C)C2O)C(CC=O)CC(C)C(=O)C=CC(C)=CC1CN(C)CCc1ccccc1 (stereo not shown)    3.12
CCC1OC(=O)CC(O)C(C)C(OC2OC(C)CC(N(C)C)C2O)C(CC=O)CC(C)C(=O)C=CC(C)=CC1CNC(=O)c1ccccc1 (stereo not shown)    3.12

*Q* For the compound CCC1OC(=O)CC(O)C(C)C(OC2OC(C)C(O)C(N(C)C)C2O)C(CC=O)CC(C)C(=O)C=CC(C)=CC1CN1CCCCC1 (stereo not shown) , report MIC.
*A* 0.78

*Q* For the compound CCC1OC(=O)CC(O)C(C)C(OC2OC(C)CC(N(C)C)C2O)C(CC=O)CC(C)C(=O)C=CC(C)=CC1CN1CCCCC1 (stereo not shown) , report MIC.
*A* 0.39
